# SYSTEM UNDER TEST: Cytochrome P450 2C9 (Homo sapiens) (UniProt P11712)
# Sequence (P11712 whole entry, looked up): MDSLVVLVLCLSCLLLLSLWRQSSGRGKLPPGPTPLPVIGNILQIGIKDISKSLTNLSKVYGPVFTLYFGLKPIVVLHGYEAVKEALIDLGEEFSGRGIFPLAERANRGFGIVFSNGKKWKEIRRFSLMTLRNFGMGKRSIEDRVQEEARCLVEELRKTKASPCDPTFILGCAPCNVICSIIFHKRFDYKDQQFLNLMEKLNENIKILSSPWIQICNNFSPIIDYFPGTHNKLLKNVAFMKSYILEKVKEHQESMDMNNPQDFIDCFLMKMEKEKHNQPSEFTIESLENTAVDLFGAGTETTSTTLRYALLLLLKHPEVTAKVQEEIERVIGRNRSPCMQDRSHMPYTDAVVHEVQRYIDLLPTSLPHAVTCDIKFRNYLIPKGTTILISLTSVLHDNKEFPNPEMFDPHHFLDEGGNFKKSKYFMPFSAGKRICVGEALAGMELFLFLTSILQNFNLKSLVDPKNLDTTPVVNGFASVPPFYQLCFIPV
# ASSAY SUMMARY: Cytochrome panel assay with activity outcomes
# CONDITION NOTES: recombinant CYP, pro-luciferin dealkylation, luminescence, p450-cyp2c9; series mostly up to 57.1 µM
Out of some 16,000 compounds screened, about 4,000 (25%) were called active. Not shown: some 26% with an inconclusive outcome. The list is a sample of the results.
QUANTITY: AC50

COMPOUND | SYSTEM UNDER TEST | DATA VALUE
C=CCn1c(=O)c2c(nc(-c3ccc(S(=O)(=O)O)cc3)n2C)n(C)c1=O | Cytochrome P450 2C9 (Homo sapiens) (UniProt P11712) | inactive
Cc1sc(NC(=O)C2C3CCC(O3)C2C(=O)O)c(C(=O)OC(C)C)c1-c1ccc(Cl)cc1 (configuration not stated) | Cytochrome P450 2C9 (Homo sapiens) (UniProt P11712) | 14.1 µM (active)
CCOc1cc(/C=N/NC(=O)CNc2cccc(C)c2)ccc1OC(=O)c1ccccc1 | Cytochrome P450 2C9 (Homo sapiens) (UniProt P11712) | 5.01 µM (active)
CCCCN(CC)S(=O)(=O)c1ccc(C(=O)Nc2nnc(CSC)o2)cc1 | Cytochrome P450 2C9 (Homo sapiens) (UniProt P11712) | 0.891 µM (active)
COCCn1c(=O)c(-c2cn(C)c3ccccc23)nc2cnc(OCc3ccccc3)nc21 | Cytochrome P450 2C9 (Homo sapiens) (UniProt P11712) | inactive
C=CCn1cc(Cl)c(=O)n(CC=C)c1=O | Cytochrome P450 2C9 (Homo sapiens) (UniProt P11712) | inactive
COCCNC(=O)c1cn(Cc2c(F)cccc2Cl)nn1 | Cytochrome P450 2C9 (Homo sapiens) (UniProt P11712) | inactive
N#Cc1nc(COc2ccccc2Cl)oc1NCc1ccco1 | Cytochrome P450 2C9 (Homo sapiens) (UniProt P11712) | 1.78 µM (active)
C=CCn1c(=O)c2c(nc(Br)n2Cc2ccccc2Cl)n(C)c1=O | Cytochrome P450 2C9 (Homo sapiens) (UniProt P11712) | 14.1 µM (active)
COc1ccc(C(=O)N2CCC3(CC2)CN(C(=O)NC(C)C)C3)cc1 | Cytochrome P450 2C9 (Homo sapiens) (UniProt P11712) | inactive
Cn1cccc1C(=O)N1CCC2(CCN(C(=O)Nc3cccc(F)c3)CC2)CC1 | Cytochrome P450 2C9 (Homo sapiens) (UniProt P11712) | inactive
CCOc1ccc2ccccc2c1C(=O)N[C@@H]1C(=O)N2[C@@H]1SC(C)(C)[C@@H]2C(=O)O | Cytochrome P450 2C9 (Homo sapiens) (UniProt P11712) | inactive
CC(C(=O)NC1CCCC1)N(C(=O)c1ccc(-c2ccccc2)[nH]1)c1ccccc1F (configuration not stated) | Cytochrome P450 2C9 (Homo sapiens) (UniProt P11712) | 5.01 µM (active)
COc1ncc2nc(CCc3ccccc3)c(=O)n(CCC#N)c2n1 | Cytochrome P450 2C9 (Homo sapiens) (UniProt P11712) | inactive
CCn1c(SCC(=O)Nc2sc3c(c2C(N)=O)CCC(C)C3)nnc1-c1ccco1 (configuration not stated) | Cytochrome P450 2C9 (Homo sapiens) (UniProt P11712) | 3.16 µM (active)
Cn1c(=O)c2c(nc(N3CCN(c4ccccn4)CC3)n2Cc2ccc(Cl)cc2Cl)n(C)c1=O | Cytochrome P450 2C9 (Homo sapiens) (UniProt P11712) | inactive
CCOC(=O)C1CCCN(C(=O)c2sc3nc(-c4ccc(OC)cc4)cn3c2C)C1 (configuration not stated) | Cytochrome P450 2C9 (Homo sapiens) (UniProt P11712) | 4.47 µM (active)
CCOc1cc(C2CC(=O)c3c(ccc4ccccc34)N2)ccc1O (configuration not stated) | Cytochrome P450 2C9 (Homo sapiens) (UniProt P11712) | 3.16 µM (active)
COc1ccc2c(c1)-c1ccccc1S(=O)(=O)N2C | Cytochrome P450 2C9 (Homo sapiens) (UniProt P11712) | 14.1 µM (active)
CCOc1cc(/C=N/NC(=O)COc2cccc(C)c2)ccc1OC(=O)c1cccs1 | Cytochrome P450 2C9 (Homo sapiens) (UniProt P11712) | 3.16 µM (active)
O=C1CCCCCC1C1(O)C(=O)Nc2ccc(Br)cc21 (configuration not stated) | Cytochrome P450 2C9 (Homo sapiens) (UniProt P11712) | inactive
N#CCCn1c(=O)c(CCc2ccccc2)nc2cnc(Oc3cccc(Cl)c3)nc21 | Cytochrome P450 2C9 (Homo sapiens) (UniProt P11712) | 3.16 µM (active)
Cc1ccc(-c2c(C)sc(NC(=O)C3C4CCC(O4)C3C(=O)O)c2C(=O)OC(C)C)cc1 (configuration not stated) | Cytochrome P450 2C9 (Homo sapiens) (UniProt P11712) | inactive
Cc1[nH]c2c(C)cccc2c1CCNC(=O)c1ccc2c(c1[N+](=O)[O-])C(=O)c1ccccc1C2=O | Cytochrome P450 2C9 (Homo sapiens) (UniProt P11712) | 1.12 µM (active)
CCn1c(SCC(=O)Nc2sc3c(c2C#N)CCC(C(C)(C)C)C3)nnc1-c1ccco1 (configuration not stated) | Cytochrome P450 2C9 (Homo sapiens) (UniProt P11712) | 8.91 µM (active)
CN(C)CCCNC(=O)c1cc2c3ccccc3n(C)c2s1 | Cytochrome P450 2C9 (Homo sapiens) (UniProt P11712) | inactive
N[C@@H](Cc1cnc[nH]1)C(=O)O | Cytochrome P450 2C9 (Homo sapiens) (UniProt P11712) | inactive
O=C(COC(=O)c1cccnc1Nc1cccc(C(F)(F)F)c1)NCc1ccc2c(c1)OCO2 | Cytochrome P450 2C9 (Homo sapiens) (UniProt P11712) | 3.55 µM (active)
Cn1c(=O)c2c(nc(N3CCN(c4ccccn4)CC3)n2Cc2ccccc2Cl)n(C)c1=O | Cytochrome P450 2C9 (Homo sapiens) (UniProt P11712) | 3.55 µM (active)
CC[C@H](C)[C@@H]1O[C@]2(CC[C@@H]1C)C[C@H]1C[C@H](CC=C(C)[C@@H](O[C@H]3C[C@H](OC)[C@H](O[C@H]4C[C@H](OC)[C@H](O)[C@H](C)O4)[C@H](C)O3)[C@@H](C)C=CC=C3CO[C@@H]4[C@@H](O)C(C)=C[C@H](C(=O)O1)[C@@]34O)O2 | Cytochrome P450 2C9 (Homo sapiens) (UniProt P11712) | inactive
COc1ccc(Oc2ncc3nc(CCc4ccccc4)c(=O)n(CCC#N)c3n2)cc1 | Cytochrome P450 2C9 (Homo sapiens) (UniProt P11712) | 10 µM (active)
CN(C)CCNC(=O)C1CCCNC1=O (configuration not stated) | Cytochrome P450 2C9 (Homo sapiens) (UniProt P11712) | inactive
